The measurements presented in this section are drawn from patent US20180222961A1.

Target of assay: T1, HLA-B*07:02 (human)
T1 construct: also called peptide-receptive MHC molecules
Experiment: UV-exchange b2m ELISA; exchange-yield grade
Metric: peptide exchange yield

[[record]]
binder = "RPLFYVVSL"
reported_result = "20 to 50%"

[[record]]
binder = "SPRTEASSAVL"
reported_result = "50 to 75%"

[[record]]
binder = "FPHSEMTTV"
reported_result = "50 to 75%"


Hi, could you look up peptide exchange yield for each item in my list?
1. APLPRPGAVL
2. SPMATTSTL
3. TPWAESSTKF

1. 50 to 75%
2. 50 to 75%
3. 20 to 50%
